Would you kindly list IC50 for each of these molecules?
Target: EphrinB2-EphB2 (Homo sapiens)
Construct: soluble human EphB1-His, EphB2-His, and EphB4-His ectodomains; commercially available human EphrinB1-Fc (EB1), EphrinB2-Fc (EB2), and EphrinB3-Fc (EB3) ectodomain proteins; purchased
Test: Octet tetramerization inhibition, immobilized human EphrinB2 binding to 50 nM soluble human EphB2
Settings: Absolute Association IC50 (300 sec), Table A, EphrinB2-EphB2

| molecule | result |
| --- | --- |
| O=C(c1ccc(O)c2ncccc12)N1CCOCC1 | 3.02 µM |

Each molecule below has a reported value. Please supply its IC50.
1. Oc1ccc(CN2CCN(c3ccccc3)CC2)c2cccnc12 [Compound 22]
2. COc1ccc2[nH]cc(C(=O)N3CCOCC3)c2c1
3. O=C(Cc1ccccc1)Nc1ccc(N2CCN(Cc3ccc(O)c4ncccc34)CC2)cc1

A.
> 3.2 µM
> 3.2 µM
1.45 µM

Each molecule below has a reported value. Please supply its IC50.
1. CC(=O)Nc1ccc(N2CCN(Cc3ccc(O)c4ncccc34)CC2)cc1
2. Oc1c(Cl)cc(CN2CCOCC2)c2cccnc12 [Compound 4]
3. OCc1ccc2c(CN3CCOCC3)ccc(O)c2n1
4. Oc1ccc(CN2CCN(c3ccccc3)CC2)c2cccnc12 [Compound 23]
5. Oc1ccc(CN2CCN(Cc3ccc(C(F)(F)F)cc3)CC2)c2cccnc12
6. COc1ccccc1N1CCN(Cc2ccc(O)c3ncccc23)CC1

A.
> 3.2 µM
1.26 µM
> 3.2 µM
> 1.6 µM
> 1.6 µM
> 3.2 µM

====

Target: EphB2-EphrinA5 (Mus musculus, UniProt P54763)
Sequence (P54763 19-543 limits assumed): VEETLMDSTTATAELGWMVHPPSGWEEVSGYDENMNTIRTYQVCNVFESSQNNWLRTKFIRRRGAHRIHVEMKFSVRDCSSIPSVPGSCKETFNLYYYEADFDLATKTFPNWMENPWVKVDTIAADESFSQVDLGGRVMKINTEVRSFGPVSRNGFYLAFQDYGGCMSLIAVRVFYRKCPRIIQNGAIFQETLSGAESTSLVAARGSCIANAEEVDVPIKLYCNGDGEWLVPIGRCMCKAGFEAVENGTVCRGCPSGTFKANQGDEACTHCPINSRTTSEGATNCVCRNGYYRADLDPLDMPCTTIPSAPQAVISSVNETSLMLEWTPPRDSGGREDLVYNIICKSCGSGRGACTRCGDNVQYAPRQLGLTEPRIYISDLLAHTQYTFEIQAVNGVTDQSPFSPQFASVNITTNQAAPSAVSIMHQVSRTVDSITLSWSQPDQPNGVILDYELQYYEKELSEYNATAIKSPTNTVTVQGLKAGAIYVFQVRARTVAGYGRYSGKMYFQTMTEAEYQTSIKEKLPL
Test: Octet, immobilized EphB2 binding to human EphrinA5
Settings: mEphB2-hEphrinA5; immobilized mouse EphB2; 50 nM soluble human EphrinA5; association; relative; read-out: Relative Association IC50
pIC50: −log10 of the molar value.
Would you kindly list pIC50 for each of these compounds?

Worked examples, 3 compounds total:
| compound | result type | result |
| --- | --- | --- |
| Oc1c(Cl)cc(CN2CCOCC2)c2cccnc12 [Compound 4] | pIC50 | > 6.00 |
| O=S1(=O)CCN(Cc2ccc(O)c3ncccc23)CC1 [Compound 15] | pIC50 | < 6.00 |
| Oc1ccc(CN2CCN(Cc3ccc(C(F)(F)F)cc3)CC2)c2cccnc12 [Compound 48] | pIC50 | < 6.00 |

Okay, now this compound:
Q. Give pIC50 (EphB2-EphrinA5 (Mus musculus, UniProt P54763)) of the following compound: O=[N+]([O-])c1cc(CN2CCOCC2)c2cccnc2c1O [Compound 10]
A. 5.54

====

Target: EphrinB2-EphB2 (Homo sapiens, UniProt P29323)
Construct: soluble human EphB1-His, EphB2-His, and EphB4-His ectodomains; commercially available human EphrinB1-Fc (EB1), EphrinB2-Fc (EB2), and EphrinB3-Fc (EB3) ectodomain proteins; purchased
Sequence (P29323 19-543 limits assumed): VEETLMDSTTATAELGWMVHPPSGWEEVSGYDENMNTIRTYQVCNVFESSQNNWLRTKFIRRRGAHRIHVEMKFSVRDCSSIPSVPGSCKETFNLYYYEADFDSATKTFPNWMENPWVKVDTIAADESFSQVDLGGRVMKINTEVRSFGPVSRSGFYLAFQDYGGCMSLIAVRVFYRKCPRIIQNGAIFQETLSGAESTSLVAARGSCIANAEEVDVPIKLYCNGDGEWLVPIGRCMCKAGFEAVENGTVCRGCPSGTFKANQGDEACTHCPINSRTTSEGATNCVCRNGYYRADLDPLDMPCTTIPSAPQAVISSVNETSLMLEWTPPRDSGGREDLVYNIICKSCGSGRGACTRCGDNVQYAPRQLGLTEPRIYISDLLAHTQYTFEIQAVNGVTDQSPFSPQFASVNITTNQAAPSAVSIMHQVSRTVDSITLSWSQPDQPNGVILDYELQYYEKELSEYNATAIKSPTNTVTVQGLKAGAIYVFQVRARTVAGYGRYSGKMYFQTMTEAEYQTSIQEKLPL
Test: Octet tetramerization inhibition, immobilized human EphrinB2 binding to 50 nM soluble human EphB2
Conditions: Relative Association IC50 (300 sec), Table A, EphrinB2-EphB2
result type: pIC50
Answers are plain numbers, as −log10 of the molar value.

| compound | result |
| --- | --- |
| Oc1ccc(CN2CCN(c3ccc(Br)cn3)CC2)c2cccnc12 [Compound 34] | 5.68 |
| O=[N+]([O-])c1cc(CN2CCS(=O)(=O)CC2)c2cccnc2c1O [Compound 20] | 5.67 |
| Oc1ccc(CN2CCN(c3ccc(I)cc3)CC2)c2cccnc12 | 5.85 |
| O=C(Cc1ccccc1)Nc1ccc(N2CCN(Cc3ccc(O)c4ncccc34)CC2)cc1 | 6.01 |
| Oc1c(Cl)cc(CN2CCOCC2)c2cccnc12 [Compound 4] | 6.28 |

Each compound below has a reported value. Please supply its pIC50.
1. Oc1c(Cl)cc(CN2CCOCC2)c2cccnc12 [Compound 3]
2. Oc1ccc(CN2CCN(Cc3ccccc3)CC2)c2cccnc12
3. Oc1c(I)cc(CN2CCN(Cc3ccc(Br)cc3)CC2)c2cccnc12
4. Oc1ccc(CN2CCN(Cc3ccc(Br)cc3)CC2)c2cccnc12 [Compound 42]
5. O=C(c1ccc(O)c2ncccc12)N1CCOCC1

A.
[5.95, 5.74, 6.32, 5.99, 5.71]

Each compound below has a reported value. Please supply its pIC50.
1. O=S1(=O)CCN(Cc2cc(Br)c(O)c3ncccc23)CC1
2. COc1ccc(N2CCN(Cc3ccc(O)c4ncccc34)CC2)cc1
3. Oc1ccc(CN2CCN(c3ccccc3)CC2)c2cccnc12 [Compound 22]
4. OCc1ccc2c(CN3CCOCC3)ccc(O)c2n1

A.
1: 6.05; 2: 5.92; 3: 5.52; 4: 5.56

====

Target: EphrinB2-EphB4 (Homo sapiens, UniProt P54760)
Construct: soluble human EphB1-His, EphB2-His, and EphB4-His ectodomains; commercially available human EphrinB1-Fc (EB1), EphrinB2-Fc (EB2), and EphrinB3-Fc (EB3) ectodomain proteins; purchased
Sequence (P54760 16-539 limits assumed): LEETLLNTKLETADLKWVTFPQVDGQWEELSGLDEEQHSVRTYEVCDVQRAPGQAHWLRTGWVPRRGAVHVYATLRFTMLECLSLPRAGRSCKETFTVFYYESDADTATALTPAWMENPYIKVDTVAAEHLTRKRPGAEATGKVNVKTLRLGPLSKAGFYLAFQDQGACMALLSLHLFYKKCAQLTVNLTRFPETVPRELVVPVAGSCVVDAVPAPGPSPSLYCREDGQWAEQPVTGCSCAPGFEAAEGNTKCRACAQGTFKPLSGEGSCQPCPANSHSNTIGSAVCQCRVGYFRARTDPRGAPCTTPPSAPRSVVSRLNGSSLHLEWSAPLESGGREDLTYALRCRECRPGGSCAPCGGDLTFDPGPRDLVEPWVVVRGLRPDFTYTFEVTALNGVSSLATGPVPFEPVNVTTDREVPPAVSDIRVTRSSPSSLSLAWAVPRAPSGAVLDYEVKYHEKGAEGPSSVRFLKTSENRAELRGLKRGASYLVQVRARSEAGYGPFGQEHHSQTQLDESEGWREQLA
Experiment: Octet 80 sec association/500 sec dissociation, immobilized human EphrinB2-Fc binding to soluble human EphB4-His
Conditions: EphB4; Full AUC; read-out: Absolute IC50
Procedure: In another experiment, whether certain A20 analogs might have specificity for different Eph receptors was tested. […] Because the response levels during the dissociation step plateau for the EphrinB2-EphB2 and EphrinB2-EphB1 interactions by the first 80″, AUCs were also calculated for run data encompassing the first 160″ of each experiment to account for both the 80″ association data (red asterisks) and the first 80″ of dissociation data (marked by green line and asterisks). […]
result type: IC50 (nM)
One number for each entry, in nM.

| compound | unit of measurement | result |
| --- | --- | --- |
| Oc1c(Br)cc(CN2CCN(c3ccc(Br)cc3)CC2)c2cccnc12 [Compound 28] | nM | 320 |

Q. Give its IC50 value. Item: Oc1c(I)cc(CN2CCOCC2)c2cccnc12 [Compound 7, 7-iodo-5-(morpholinomethyl)quinolin-8-ol]
A. 1260

====

Target: EphrinB2-EphB1 (Homo sapiens)
Construct: soluble human EphB1-His, EphB2-His, and EphB4-His ectodomains; commercially available human EphrinB1-Fc (EB1), EphrinB2-Fc (EB2), and EphrinB3-Fc (EB3) ectodomain proteins; purchased
Sequence (P54762 18-540 limits assumed): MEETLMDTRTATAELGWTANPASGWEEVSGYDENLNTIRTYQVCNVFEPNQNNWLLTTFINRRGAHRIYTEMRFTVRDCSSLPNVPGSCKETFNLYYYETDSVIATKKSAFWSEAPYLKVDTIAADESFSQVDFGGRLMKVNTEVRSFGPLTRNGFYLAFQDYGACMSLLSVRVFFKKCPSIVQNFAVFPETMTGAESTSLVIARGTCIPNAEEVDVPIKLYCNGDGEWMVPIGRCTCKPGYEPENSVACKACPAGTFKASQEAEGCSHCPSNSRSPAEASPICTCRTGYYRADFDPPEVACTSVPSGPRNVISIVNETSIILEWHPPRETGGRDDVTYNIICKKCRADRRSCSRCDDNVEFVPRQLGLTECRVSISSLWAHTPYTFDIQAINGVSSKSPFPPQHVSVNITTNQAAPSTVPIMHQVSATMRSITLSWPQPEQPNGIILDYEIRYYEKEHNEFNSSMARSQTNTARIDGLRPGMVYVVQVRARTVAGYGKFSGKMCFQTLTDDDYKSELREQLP
Test: Octet 80 sec association/500 sec dissociation, immobilized human EphrinB2-Fc binding to soluble human EphB1-His
Conditions: EphB1; Dissociation (135″); read-out: Relative IC50
result type: pIC50
Answers are plain numbers, as −log10 of the molar value.

| molecule | pIC50 |
| --- | --- |
| Oc1c(Br)cc(CN2CCN(c3ccc(Br)cc3)CC2)c2cccnc12 [Compound 28] | 7.10 |

Q. Give its pIC50 value. Item: Oc1c(I)cc(CN2CCOCC2)c2cccnc12 [Compound 7, 7-iodo-5-(morpholinomethyl)quinolin-8-ol]
A. 6.36

====

Target: EphB4-EphrinB2 (Mus musculus, UniProt P54761)
Construct: biosensor immobilized rodent EphB1-Fc and EphB4-Fc ectodomain proteins; mouse EB2-His residues 18-232; purchased R&D Systems (EphB-Fc); Sino Biologicals (EphrinB-His)
Sequence (P54761 16-539 limits assumed): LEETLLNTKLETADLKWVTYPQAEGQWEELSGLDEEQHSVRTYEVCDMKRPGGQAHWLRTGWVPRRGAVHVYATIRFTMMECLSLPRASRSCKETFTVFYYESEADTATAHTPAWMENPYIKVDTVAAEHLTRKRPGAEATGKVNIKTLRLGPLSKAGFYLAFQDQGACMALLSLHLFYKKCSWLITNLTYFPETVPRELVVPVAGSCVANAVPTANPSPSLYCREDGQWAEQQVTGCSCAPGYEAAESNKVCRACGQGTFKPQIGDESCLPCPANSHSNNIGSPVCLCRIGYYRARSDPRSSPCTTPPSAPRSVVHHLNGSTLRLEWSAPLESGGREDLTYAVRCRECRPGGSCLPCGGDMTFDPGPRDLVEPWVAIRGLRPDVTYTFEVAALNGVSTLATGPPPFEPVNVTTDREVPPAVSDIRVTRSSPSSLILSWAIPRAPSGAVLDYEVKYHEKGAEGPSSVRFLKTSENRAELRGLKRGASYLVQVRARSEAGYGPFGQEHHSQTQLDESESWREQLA
Assay: Octet RED384, immobilized mouse EphB4-Fc binding to mouse EB2-His
Details: EphB4-EB2; read-out: area under the curve IC50
result type: IC50

Q. Give its IC50 value. Item: Oc1c(Br)cc(CN2CCOCC2)c2cccnc12
A. > 100 µM

====

Biological target: EphrinB2-EphB2 (Homo sapiens)
Construct: soluble human EphB1-His, EphB2-His, and EphB4-His ectodomains; commercially available human EphrinB1-Fc (EB1), EphrinB2-Fc (EB2), and EphrinB3-Fc (EB3) ectodomain proteins; purchased
Assay: Octet 80 sec association/500 sec dissociation, immobilized human EphrinB2-Fc binding to soluble human EphB2-His
Conditions: at 3.2 μM and 580 seconds; immobilized human EphrinB2; 25 nM soluble human EphB2
Where a name gives a salt, the structure may show the parent alone.
result type: EphB2 Inhibition Percent, Inhibition of Association-Dissociation (%)
Numbers only, in %.

Worked examples, 5 molecules total:
| molecule | system tested | unit of measurement | result |
| --- | --- | --- | --- |
| Cc1ccc2c(CN3CCOCC3)cc(Br)c(O)c2n1 | EphrinB2-EphB2 (Homo sapiens) | % | 20.3 |
| Oc1c(I)cc(CN2CCN(Cc3ccc(Br)cc3)CC2)c2cccnc12 | EphrinB2-EphB2 (Homo sapiens) | % | 69.6 |
| COc1ccc2[nH]cc(C(=O)N3CCN(c4ccc(Br)cc4)CC3)c2c1 | EphrinB2-EphB2 (Homo sapiens) | % | 46.4 |
| COc1ccccc1N1CCN(Cc2cc(I)c(O)c3ncccc23)CC1 [Compound 71-A, dihydrochloride] | EphrinB2-EphB2 (Homo sapiens) | % | 73.2 |
| Oc1ccc(CN2CCCCC2)c2cccnc12 [Compound 68, 5-(piperidin-1-ylmethyl)quinolin-8-ol, reference compound] | EphrinB2-EphB2 (Homo sapiens) | % | 72.9 |

Each molecule below has a reported value. Please supply its EphB2 Inhibition Percent, Inhibition of Association-Dissociation.
1. Oc1ccc(CN2CCN(C3CCCC3)CC2)c2cccnc12
2. O=S1(=O)CCN(Cc2cc(I)c(O)c3ncccc23)CC1
3. OCc1ccc2c(CN3CCOCC3)ccc(O)c2n1
4. Oc1ccc(CN2CCN(c3ccc(Br)cn3)CC2)c2cccnc12

A.
1. 21.2
2. 71.4
3. 48.1
4. 81.6

Each molecule below has a reported value. Please supply its EphB2 Inhibition Percent, Inhibition of Association-Dissociation.
1. Oc1ccc(CN2CCN(c3ccc(C(F)(F)F)cc3)CC2)c2cccnc12
2. Oc1c(Br)cc(CN2CCN(Cc3ccc(Br)cc3)CC2)c2cccnc12
3. Oc1ccc(CN2CCN(c3ccc(Br)cc3)CC2)c2cccnc12
4. COCc1cc(CN2CCN(C)CC2)c(O)c2ncccc12 [Compound 77, reference compound]
5. Oc1ccc(CN2CCN(c3ccc(I)cc3)CC2)c2cccnc12

A.
[27.6, 77.1, 60.1, 35.1, 78.2]

Each molecule below has a reported value. Please supply its EphB2 Inhibition Percent, Inhibition of Association-Dissociation.
1. Oc1c(Br)cc(CN2CCOCC2)c2cccnc12
2. O=S1(=O)CCN(Cc2cc(Br)c(O)c3ncccc23)CC1
3. O=[N+]([O-])c1ccc(N2CCN(Cc3ccc(O)c4ncccc34)CC2)cc1
4. O=S1(=O)CCN(Cc2ccc(O)c3ncccc23)CC1
5. COc1ccc(N2CCN(Cc3cc(I)c(O)c4ncccc34)CC2)cc1
6. Oc1c(Cl)cc(CN2CCOCC2)c2cccnc12
7. COc1ccc(N2CCN(Cc3ccc(O)c4ncccc34)CC2)cc1
8. Oc1c(I)cc(CN2CCOCC2)c2cccnc12

A.
1. 76.8
2. 74.5
3. 72.1
4. 46.4
5. 70.0
6. 78.1
7. 60.2
8. 73.6
